Origin of the recorded values: paper PMC12952245

Assay: clinical
Settings: human, in vivo
test_readout: Tmax (min)
Answers are plain numbers, in min.

Recorded Tmax of CNCc1ccc(-c2cc(-c3nc(-c4ccc(S(=O)(=O)C(C)C)cc4)cnc3N)on2)cc1 , please.
36.6

---

Assay: clinical
Conditions: human, in vivo, 120 mg/m2
Description: Berzosertib plasma protein binding was assessed in vitro using rapid equilibrium dialysis (RED) devices (Thermo Fisher Scientific, Waltham, Massachusetts). Plasma pharmacokinetic parameters were derived from the data by noncompartmental methods with WinNonlin (Certara). Statistical analyses for pharmacokinetic parameter values were performed using SPSS 27.0 for Windows (SPSS Inc, Chicago, Illinois).
test_readout: half-life (h)
Answers are plain numbers, in h.

Recorded half-life of CNCc1ccc(-c2cc(-c3nc(-c4ccc(S(=O)(=O)C(C)C)cc4)cnc3N)on2)cc1 [berzosertib] , please.
14.1

---

Test: clinical
Conditions: human, in vivo, iv
Protocol: Berzosertib plasma protein binding was assessed in vitro using rapid equilibrium dialysis (RED) devices (Thermo Fisher Scientific, Waltham, Massachusetts). Plasma pharmacokinetic parameters were derived from the data by noncompartmental methods with WinNonlin (Certara). Statistical analyses for pharmacokinetic parameter values were performed using SPSS 27.0 for Windows (SPSS Inc, Chicago, Illinois).
test_readout: half-life

Recorded half-life of CNCc1ccc(-c2cc(-c3nc(-c4ccc(S(=O)(=O)C(C)C)cc4)cnc3N)on2)cc1 , please.
~17 h

---

Assay: clinical
Settings: human, in vivo, 60 mg/m2
Method: Berzosertib plasma protein binding was assessed in vitro using rapid equilibrium dialysis (RED) devices (Thermo Fisher Scientific, Waltham, Massachusetts). Plasma pharmacokinetic parameters were derived from the data by noncompartmental methods with WinNonlin (Certara). Statistical analyses for pharmacokinetic parameter values were performed using SPSS 27.0 for Windows (SPSS Inc, Chicago, Illinois).
test_readout: AUC(0-inf) (ng·h/mL)
Answers are plain numbers, in ng·h/mL.

Recorded AUC(0-inf) of CNCc1ccc(-c2cc(-c3nc(-c4ccc(S(=O)(=O)C(C)C)cc4)cnc3N)on2)cc1 , please.
2330

---

Test: clinical
Details: human, in vivo, 270 mg/m2
test_readout: Tmax (min)
One number for each entry, in min.

Recorded Tmax of CNCc1ccc(-c2cc(-c3nc(-c4ccc(S(=O)(=O)C(C)C)cc4)cnc3N)on2)cc1 [berzosertib] , please.
36.6

---

Experiment: clinical
Conditions: human, in vivo, 180 mg/m2
test_readout: Cmax

Recorded Cmax of CNCc1ccc(-c2cc(-c3nc(-c4ccc(S(=O)(=O)C(C)C)cc4)cnc3N)on2)cc1 , please.
1060 ng/mL

---

Test: clinical
Details: human, in vivo, 180 mg/m2
test_readout: AUC(0-inf) (ng·h/mL)
Answers are plain numbers, in ng·h/mL.

Recorded AUC(0-inf) of CCc1c2c(nc3ccc(OC(=O)N4CCC(N5CCCCC5)CC4)cc13)-c1cc3c(c(=O)n1C2)COC(=O)[C@]3(O)CC , please.
14000
